FYI, the data here is from patent US12459914B2.

# target system: BRC4/RAD51 interaction (Homo sapiens, UniProt Q06609)
# Construct: Life Technologies (BRC4 peptide)
# Sequence (Q06609 whole entry): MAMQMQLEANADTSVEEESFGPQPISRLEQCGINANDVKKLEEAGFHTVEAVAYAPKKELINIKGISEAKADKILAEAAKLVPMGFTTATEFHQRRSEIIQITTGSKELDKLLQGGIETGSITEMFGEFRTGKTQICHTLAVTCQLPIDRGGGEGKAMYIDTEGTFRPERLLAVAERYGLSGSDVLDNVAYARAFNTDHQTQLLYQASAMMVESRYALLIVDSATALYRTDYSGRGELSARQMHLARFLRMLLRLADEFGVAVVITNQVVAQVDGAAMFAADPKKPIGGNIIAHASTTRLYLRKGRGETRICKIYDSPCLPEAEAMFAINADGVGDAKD
# procedure summary: Competitive ELISA assay, disruption of BRC4/RAD51 interaction
# run parameters: human Rad51, biotinylated BRC4 peptide
pEC50: −log10 of the molar value.
Listed below: pEC50 values for each entry.
readout label: pEC50

>>> test_value("CC(=O)N1N=C(c2c(-c3ccccc3)c3cc(Cl)ccc3[nH]c2=O)CC1c1ccc2c(ccn2C)c1 (stereo not shown)")
4.74
>>> test_value("O=C(O)CCC(=O)N1N=C(c2c(-c3ccccc3)c3cc(Cl)ccc3[nH]c2=O)CC1c1ccc(C(F)(F)F)cc1 (stereo not shown)")
4.54
>>> test_value("O=C(O)CCC(=O)N1N=C(c2c(-c3ccccc3)c3cc(Cl)ccc3[nH]c2=O)CC1c1ccc(-c2ccc(Cl)cc2)cc1 (stereo not shown)")
4.60
>>> test_value("CC(=O)N1N=C(c2c(-c3ccccc3)c3cc(Cl)ccc3[nH]c2=O)CC1c1ccc2c(cnn2C)c1 (stereo not shown)")
5.05

###

# procedure summary: Pharmacokinetic studies in mice, plasma levels by LC/MS-MS
# Type: in vivo, C57B6/J mice
# run parameters: male, C57B6/J; mouse plasma, PO 2 mg/kg, 60 min; read-out: Average conc.
readout label: concentration at 60 min

>>> test_value("CCC(=O)N1N=C(c2c(-c3ccccc3)c3cc(Cl)ccc3[nH]c2=O)CC1c1ccc(OC)cc1 (stereo not shown) [d.12]")
"30 ng/mL"

###

Readings of pEC50 for the listed compounds
# Tested on: BxPC-3 cells
# procedure summary: Cell viability assay (CellTiter Glo)
# Assay type: cell-based
# run parameters: Homo sapiens, 72 h
pEC50: −log10 of the molar value.
readout label: pEC50

>>> test_value("COc1ccc(C2CC(c3c(CCc4ccccc4)c4cc(Cl)ccc4[nH]c3=O)=NN2C(=O)CCC(=O)O)cc1 (stereo not shown)")
4.53
>>> test_value("CC(C)(C)c1ccc(C2CC(c3c(-c4ccccc4)c4cc(Cl)ccc4[nH]c3=O)=NN2C(=O)CCC(=O)O)cc1 (stereo not shown)")
4.15
>>> test_value("NCCC(=O)N1N=C(c2c(-c3ccccc3)c3cc(Cl)ccc3[nH]c2=O)CC1c1ccc(F)cc1 (stereo not shown)")
5.12
>>> test_value("COc1ccc(C2CC(c3c(Cc4ccccc4)c4cc(Cl)ccc4[nH]c3=O)=NN2C(C)=O)cc1 (stereo not shown)")
4.86

###

# target system: BRC4/RAD51 interaction (Homo sapiens, UniProt Q06609)
# Construct: Life Technologies (BRC4 peptide)
# procedure summary: Competitive ELISA assay, disruption of BRC4/RAD51 interaction
# run parameters: human Rad51, biotinylated BRC4 peptide
readout label: EC50 (µM)

>>> test_value("CCn1cc2cc(-c3ccc(C4CC(c5c(-c6ccccc6)c6cc(Cl)ccc6[nH]c5=O)=NN4C(=O)CCC(=O)O)cc3)ccc2n1 (stereo not drawn) [d.46]")
17
>>> test_value("O=C(O)CCC(=O)N1N=C(c2c(Cc3ccccc3)c3cc(Cl)ccc3[nH]c2=O)CC1c1ccc(-c2ccc(F)cc2)cc1 (stereo not drawn) [d.83]")
12
>>> test_value("CCCn1cc(-c2ccc(C3CC(c4c(-c5ccccc5)c5cc(Cl)ccc5[nH]c4=O)=NN3C(=O)CCC(=O)O)cc2)cn1 (stereo not drawn) [d.43]")
65
>>> test_value("CCC(=O)N1N=C(c2c(-c3ccccc3)c3cc(Cl)ccc3[nH]c2=O)CC1c1ccc(Br)cc1 (stereo not drawn) [d.10]")
19
>>> test_value("CCn1ccc2cc(C3CC(c4c(-c5ccccc5)c5cc(Cl)ccc5[nH]c4=O)=NN3C(=O)CCC(=O)O)ccc21 (stereo not drawn) [d.24]")
10
>>> test_value("CC(=O)N1N=C(c2c(-c3ccccc3)c3cc(Cl)ccc3[nH]c2=O)CC1c1ccc(C(C)(C)C)cc1 (stereo not drawn) [d.17]")
15
>>> test_value("CC(=O)N1N=C(c2c(-c3ccccc3)c3cc(Cl)ccc3[nH]c2=O)CC1c1ccncc1 (stereo not drawn) [d.97]")
60
>>> test_value("Cn1ncc2cc(C3CC(c4c(-c5ccccc5)c5cc(Cl)ccc5[nH]c4=O)=NN3C(=O)CCC(=O)O)ccc21 (stereo not drawn) [d.26]")
13
>>> test_value("COc1ccc(-c2ccc(C3CC(c4c(Cc5ccccc5)c5cc(Cl)ccc5[nH]c4=O)=NN3C(C)=O)cc2)cc1 (stereo not drawn) [d.89]")
105
>>> test_value("Cn1ccc2cc(C3CC(c4c(Cc5ccccc5)c5cc(Cl)ccc5[nH]c4=O)=NN3C(=O)CCC(=O)O)ccc21 (stereo not drawn) [d.69]")
10
>>> test_value("CC(=O)N1N=C(c2c(Cc3ccccc3)c3cc(Cl)ccc3[nH]c2=O)CC1c1ccc(F)cc1 (stereo not drawn) [d.51]")
13
>>> test_value("O=C(O)CCC(=O)N1N=C(c2c(-c3ccccc3)c3cc(Cl)ccc3[nH]c2=O)CC1c1ccccn1 (stereo not drawn) [d.99]")
190
>>> test_value("O=C(O)CCC(=O)N1N=C(c2c(-c3ccccc3)c3cc(Cl)ccc3[nH]c2=O)CC1c1ccc(F)cc1 (stereo not drawn) [d.1]")
38
